Experiment: Quantum yield measurements versus Acridine Yellow in EtOH
Format: physicochemical
Conditions: MK library, Table 5; excitation 460 nm
value_kind: φ (quantum yield)
In your response, put the unit directly after the numeric value.

Q. Requested read-out: φ (quantum yield). Entry: `COc1ccc(OC)c(CNC2=[N+]3C(=C(c4ccc(N)cc4)c4ccc(-n5cc(C6CCCC6)nn5)n4[B-]3(F)F)C=C2)c1`
A. 0.43%

Q. Tell me the measured φ (quantum yield) of `CCCc1cn(-c2ccc3n2[B-](F)(F)[N+]2=C(NCc4ccccc4C)C=CC2=C3c2ccc(N)cc2)nn1` , please.
A. 2.92%

Q. Give its φ (quantum yield) value. Item: `Nc1ccc(C2=C3C=CC(N4CCc5ccccc5C4)=[N+]3[B-](F)(F)n3c2ccc3-n2cc(CC3CCCCC3)nn2)cc1`
A. 0.12%

Q. Recorded φ (quantum yield) of CC1CN(C2=[N+]3C(=C(c4ccc(N)cc4)c4ccc(-n5cc(C6CCCC6)nn5)n4[B-]3(F)F)C=C2)CC(C)O1 (stereo not shown) , please.
A. 0.57%

----------
Test: Quantum yield measurements versus Acridine Yellow in EtOH
Assay type: physicochemical
Details: MKAC compound library; quantum yield
Label true when φ (%) is at or above 3%; anything below gets false.

Q. Dear colleague, could you confirm whether `CC(=O)Nc1ccc(C2=C3C=CC(N(C)Cc4ccccc4)=[N+]3[B-](F)(F)n3c2ccc3-n2cc(CC3CCCCC3)nn2)cc1` has φ (%) at or above 3%?
A. true

Q. hey, is φ (%) for this one >= 3%? CC(=O)Nc1ccc(C2=C3C=CC(N4CC(C)OC(C)C4)=[N+]3[B-](F)(F)n3c2ccc3-n2cc(CO)nn2)cc1 (stereo not shown)
A. false

Q. Evaluate CC(=O)Nc1ccc(C2=C3C=CC(N4CC(C)OC(C)C4)=[N+]3[B-](F)(F)n3c2ccc3-n2cc(CCc3ccccc3)nn2)cc1 (stereo not shown) : φ (%) at minimum 3%?
A. true

Q. # check: φ (%) of CC(=O)Nc1ccc(C2=C3C=CC(N4CC(C)OC(C)C4)=[N+]3[B-](F)(F)n3c2ccc3-n2cc(CN(C)Cc3ccccc3)nn2)cc1 (stereo not shown) is greater than or equal to 3%
A. false

Q. Can `CCOc1ccccc1CNC1=[N+]2C(=C(c3ccc(NC(C)=O)cc3)c3ccc(-n4cc(CO)nn4)n3[B-]2(F)F)C=C1` be said to have φ (%) at or above 3%?
A. true

Q. Given the entry CCCCCC(O)c1cn(-c2ccc3n2[B-](F)(F)[N+]2=C(N4CCc5ccccc5C4)C=CC2=C3c2ccc(NC(C)=O)cc2)nn1 (stereo not shown) , answer whether its φ (%) meets or surpasses 3%.
A. false

Q. Quick check: does `CC(=O)Nc1ccc(C2=C3C=CC(NCc4cc(F)cc(F)c4)=[N+]3[B-](F)(F)n3c2ccc3-n2cc(CCc3ccccc3)nn2)cc1` have φ (%) greater than or equal to 3%?
A. true

Q. Decide: φ (%) of `CC(=O)Nc1ccc(C2=C3C=CC(N(C)Cc4ccccc4)=[N+]3[B-](F)(F)n3c2ccc3-n2cc(CO)nn2)cc1` >= 3%?
A. false

Q. hey, is φ (%) for this one >= 3%? `CC(=O)Nc1ccc(C2=C3C=CC(N4CCc5ccccc5C4)=[N+]3[B-](F)(F)n3c2ccc3-n2cc(CCc3ccccc3)nn2)cc1`
A. false

Q. Please indicate if the recorded φ (%) for `CC(=O)Nc1ccc(C2=C3C=CC(NCc4cc(F)cc(F)c4)=[N+]3[B-](F)(F)n3c2ccc3-n2cc(CO)nn2)cc1` meets or exceeds 3%.
A. true

Q. Could you tell me if the measured φ (%) of `CC(=O)Nc1ccc(C2=C3C=CC(N(C)Cc4ccccc4)=[N+]3[B-](F)(F)n3c2ccc3-n2cc(CCc3ccccc3)nn2)cc1` reaches 3% or more?
A. true

Q. Reported φ (%) at or above 3%? CCCCCC(O)c1cn(-c2ccc3n2[B-](F)(F)[N+]2=C(N4CC(C)OC(C)C4)C=CC2=C3c2ccc(NC(C)=O)cc2)nn1 (stereo not shown)
A. false

Q. Does the reported φ (%) for `CC(=O)Nc1ccc(C2=C3C=CC(N4CCc5ccccc5C4)=[N+]3[B-](F)(F)n3c2ccc3-n2cc(C3CCCC3)nn2)cc1` fall at or above the 3% mark?
A. false
